Give measured inhibition for each item. Keep answers brief.
target: ADP-ribosylation factor GTPase-activating protein 1 (Rattus norvegicus) (UniProt Q62848)
Sequence (Q62848 1-136 limits assumed): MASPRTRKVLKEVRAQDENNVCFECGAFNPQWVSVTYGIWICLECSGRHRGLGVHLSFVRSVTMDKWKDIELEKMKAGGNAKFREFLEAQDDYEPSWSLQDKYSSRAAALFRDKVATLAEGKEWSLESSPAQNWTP
method.summary: blockers of ARFGAP1-stimulated ARF1 GTP hydrolysis – biochemical, fluorescence polarization, GDP tracer, primary screen (AID 651572);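 also: 0% = DMSO wells with enzyme and 100% = wells lacking Arfgap1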
condition.summary: GDP FP detection, at 16.5 µM, hits give high values
Out of some 360,000 compounds screened, about 950 (0.26%) were called active. Many of the other results were omitted from the sample, so actives are more common in it than they were.
Numbers only; they are read as %.

Recorded inhibition for Cn1c(=O)[nH]c(=O)c2c1nc(N1CCN(CCO)CC1)n2CCSc1nc2ccccc2s1 , please?
38.1

Recorded inhibition for Cn1c(=O)[nH]c(=O)c2c1nc(N1CCN(C(c3ccccc3)c3ccccc3)CC1)n2CCO , please?
-3.12

Recorded inhibition for COC(=O)C1=C(C)N(Cc2ccc(C(F)(F)F)cc2)C(=NCc2ccccc2)NC1c1ccccc1C(F)(F)F (stereo not given) , please?
9.08

Recorded inhibition for Brc1ccc(COCCc2cn(Cc3ccccc3)c3ccccc23)cc1 , please?
10.9

Recorded inhibition for C[C@H](O)[C@@H]1C(=O)N2CCc3c([nH]c4c(-c5ccc6c(c5)OCO6)cccc34)[C@@H]2C[C@@H]1N(C)C(=O)c1ccco1 , please?
1.71

* * *

Give measured inhibition for each item. Keep answers brief.
target: ADP-ribosylation factor GTPase-activating protein 1 (Rattus norvegicus)
method.summary: blockers of ARFGAP1-stimulated ARF1 GTP hydrolysis – biochemical, fluorescence polarization, GDP tracer, primary screen (AID 651572);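 also: 0% = DMSO wells with enzyme and 100% = wells lacking Arfgap1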
condition.summary: GDP FP detection, at 16.5 µM, hits give high values
The campaign covered roughly 360,000 compounds. About 950 (0.26%) were called active. For the sample, actives were picked, then their nearest neighbours and some compounds at random.
Numbers only; they are read as %.

Recorded inhibition for Cc1cc(C)c2[nH]c(=O)c(C(c3nnnn3Cc3ccc4c(c3)OCO4)N3CCCC3)cc2c1 (centres undefined) , please?
6.09

Recorded inhibition for O=C(CN1CCN(c2ccc(Cl)cc2)CC1)NCc1cccs1 , please?
-5.05

Recorded inhibition for COc1ccc(/C=C2\SC(=S)N(CCCC(=O)NC3CCCC3)C2=O)cc1OC , please?
25.1

Recorded inhibition for CC(C)c1ccc(/C=C/C(=O)NCCCN2CCOCC2)cc1 , please?
-5.51

Recorded inhibition for O=C1[C@@H](c2ccccc2)[C@@H](c2ccccc2)N1c1ccccc1 , please?
-3.37

Recorded inhibition for Nc1ccn([C@@H]2O[C@H](C(=O)N[C@H]3CCCCNC3=O)[C@@H](O)[C@H]2O)c(=O)n1 , please?
-7.26

Recorded inhibition for O=C(/C=C/c1cn(-c2ccccc2)nc1-c1ccc2c(c1)OCCO2)NCCCN1CCOCC1 , please?
25.8

Recorded inhibition for COc1ccc(CCNC(=O)CCC(=O)NC2CCCCC2)cc1OC , please?
9.15

Recorded inhibition for COc1ccc(/C=C/C(=O)OCC(=O)NC2CCCCCC2)cc1OC , please?
-8.52

Recorded inhibition for O=C(NCCCN1CCOCC1)c1cnn2c(-c3ccccc3)cc(-c3ccccc3)nc12 , please?
-2.5

Recorded inhibition for COc1ccc(N2CCN(C(c3cc4ccc(C)cc4[nH]c3=O)c3nnnn3C3CCCC3)CC2)cc1 (centres undefined) , please?
7.55

Recorded inhibition for CC(C)(C)n1nc(C2CC2)c(Br)c1NC(=O)c1ccccc1F , please?
-8.2

Recorded inhibition for COC(=O)[C@]12C[C@H](CC(=O)NCCCCc3ccccc3)C(=O)N(Cc3ccc4c(c3)OCO4)C1=C[C@H](C(C)(C)C)O[C@@H]2C , please?
2.49

Recorded inhibition for CC(C)[C@H]1COCCS(=O)(=O)N1Cc1ccccc1-c1cccc2c1sc1ccccc12 , please?
-9.36

Recorded inhibition for CN[C@H]1C[C@H]2c3[nH]c4c(-c5ccccc5)cccc4c3CCN2C(=O)[C@H]1[C@H](C)O , please?
6.11

Recorded inhibition for CCO[C@@H]1OC(C(N)=O)=C[C@H](c2ccc(Br)cc2)[C@H]1CCCO , please?
37

Recorded inhibition for O=c1[nH]c(-c2ccccc2)cn1C1CCN(Cc2ccc(-c3nc4ccc(F)cc4nc3-c3ccccc3)cc2)CC1 , please?
6.41

Recorded inhibition for COc1cccc(CNC(=O)[C@H]2CCCN2C(=O)[C@H]2CCCN2C(=O)c2cc(F)cc(F)c2)c1 , please?
9.87

Recorded inhibition for O=C(O)CCn1c(SCc2cc(=O)n3ccccc3n2)nc2ccsc2c1=O , please?
9.88

* * *

target: ADP-ribosylation factor GTPase-activating protein 1 (Rattus norvegicus) (UniProt Q62848)
method.summary: blockers of ARFGAP1-stimulated ARF1 GTP hydrolysis – biochemical, fluorescence polarization, GDP tracer, primary screen (AID 651572);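 also: 0% = DMSO wells with enzyme and 100% = wells lacking Arfgap1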
condition.summary: GDP FP detection, at 16.5 µM, hits give high values
Among all 360,000 compounds or so, about 950 (0.26%) were called active. This is one part of a sample in which actives are shown more often than they occur.
property: inhibition (%)
Numbers only; they are read as %.

Recorded inhibition for Nc1ncnc2c1ncn2[C@@H]1O[C@H](C(=O)N[C@@H](CCc2ccccc2)C(=O)NCC(=O)N2CCOCC2)[C@@H](O)[C@H]1O , please?
-17.3

Recorded inhibition for COc1ccc(C(CNC(=O)c2cccc(NS(=O)(=O)c3ccc(C)c(F)c3)c2)N2CCCC2)cc1 (centres undefined) , please?
16.5

Recorded inhibition for COc1ccc(C(CNC(=O)c2cccc(S(=O)(=O)Nc3ccccc3Cl)c2)N2CCOCC2)cc1 (centres undefined) , please?
27

Recorded inhibition for COc1ccc(C(CNC(=O)c2ccc(S(=O)(=O)Nc3ccccc3C)cc2)N2CCOCC2)cc1 (centres undefined) , please?
-2.87

* * *

Give measured inhibition for each item. Keep answers brief.
target: ADP-ribosylation factor GTPase-activating protein 1 (Rattus norvegicus) (UniProt Q62848)
method.summary: blockers of ARFGAP1-stimulated ARF1 GTP hydrolysis – biochemical, fluorescence polarization, GDP tracer, primary screen (AID 651572);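 also: 0% = DMSO wells with enzyme and 100% = wells lacking Arfgap1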
condition.summary: GDP FP detection, at 16.5 µM, hits give high values
Out of some 360,000 compounds screened, about 950 (0.26%) were called active. For the sample, actives were picked, then their nearest neighbours and some compounds at random.
Numbers only; they are read as %.

Recorded inhibition for C=CCN=C1NC(c2ccccc2)C(C(=O)OC)=C(C)N1Cc1ccc(C(F)(F)F)cc1 (stereo unspecified) , please?
7.52

Recorded inhibition for COc1ccc(CNC(=O)C2CCN(C(=O)c3ccco3)CC2)cc1 , please?
9.83

Recorded inhibition for CC(=O)C1=C(C)N(Cc2ccc(Cl)cc2)C(=S)NC1c1ccc(F)cc1 (stereo unspecified) , please?
-8.75

Recorded inhibition for COc1ccc(CNC(=O)C2CCN(C(=O)c3ccccc3)CC2)cc1 , please?
-4.15

Recorded inhibition for CN1C(=O)C(Br)(Br)CC1c1cccnc1 (stereo unspecified) , please?
15.5

Recorded inhibition for CCOC(=O)c1ccc(Nc2cc3ccccc3c(=O)[nH]2)cc1 , please?
25.9

Recorded inhibition for COc1ccc(NC(=O)c2cn(-c3ccccc3)nc2SC)cc1 , please?
25.1

Recorded inhibition for COc1ccc(NC(=O)CSc2nc(N)c(-c3ccccc3)c(=O)[nH]2)cc1 , please?
5.45

Recorded inhibition for COc1ccc(-n2nc3c(N4CCC(C(=O)NCc5ccccc5)CC4)nnc(C)c3c2C)cc1 , please?
26.9

Recorded inhibition for O=C(NCc1ccccc1)[C@H]1CCCN1C(=O)[C@H]1CCCN1C(=O)c1cc(F)cc(F)c1 , please?
-2.81

Recorded inhibition for O=C(C(=O)N1CCC(CNC(=O)c2cccnc2Cl)CC1)c1cccs1 , please?
12.7

* * *

target: ADP-ribosylation factor GTPase-activating protein 1 (Rattus norvegicus)
method.summary: blockers of ARFGAP1-stimulated ARF1 GTP hydrolysis – biochemical, fluorescence polarization, GDP tracer, primary screen (AID 651572);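 also: 0% = DMSO wells with enzyme and 100% = wells lacking Arfgap1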
condition.summary: GDP FP detection, at 16.5 µM, hits give high values
Screen size: about 360,000 compounds; about 950 (0.26%) were called active. For the sample, actives were picked, then their nearest neighbours and some compounds at random.
property: inhibition (%)
Numbers only; they are read as %.

Recorded inhibition for CN(C)C(=O)N1CCN(C(=O)[C@@H](Cc2ccccc2)NC(=O)[C@H]2O[C@@H](n3ccc(N)nc3=O)[C@H](O)[C@@H]2O)CC1 , please?
5.01

Recorded inhibition for CC(=O)C1=C(C)N(Cc2ccccc2)C(=S)NC1c1cccc(Br)c1 (centres undefined) , please?
20.9

Recorded inhibition for CCOC(=O)C1=C(C(=O)OCC)C2N(Cc3ccc(C#N)cc3)c3ccccc3[C@@]23C[C@@H](C(=O)OC)N(S(=O)(=O)c2ccc(F)cc2)C3=N1 (some centres undefined) , please?
6.03

Recorded inhibition for COC(=O)C1=C(C)N(Cc2cccc(C(F)(F)F)c2)C(=NCc2ccccc2)NC1c1ccccc1C(F)(F)F (centres undefined) , please?
18.8
